- Protocol text: chemical genetic growth profiling, strain panel (AID 1159580);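 also: tested at 20 µM; growth read once vehicle control cultures reached saturation at 30 °C; 1 = growth at the plate median or of vehicle wells; lower values mean less growth of the strain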
- Condition set: S. cerevisiae deletion strains, growth OD, locus YNL020C, strain ARK1, hits give low values
The whole screen tested about 5,500 compounds, of which about 2,000 (36%) were called active. Roughly 18% stayed inconclusive and do not appear here. This is one part of the list.
Quick rule for you: normalized growth under 0.9 gets label 1, anything else gets label 0.

Solved cases below.
- Mol smiles: "O=C(NNC(=S)Nc1ccc(Cl)cc1)c1ncc(C(F)(F)F)cc1Cl"
  Assigned class: "label 0"
- Mol smiles: "CC(=O)c1ccccc1C(=O)c1ccc(C(C)(C)C)cc1"
  Assigned class: "label 0"
- Mol smiles: "S=C(Nc1ccc(Cl)cc1)Nc1ccc(Cl)cc1"
  Assigned class: "label 1"
- Mol smiles: "CCOC(=O)c1cnc2c(c(C)nn2C)c1Sc1nnc(SC)s1"
  Assigned class: "label 1"
- Mol smiles: "CC(C)(C)c1ccc(C(=O)NNC(=S)Nc2ccc(Cl)cc2)cc1"
  Assigned class: "label 0"

Attention now turns to another entry.
Inquiry: Below 0.9 on normalized growth? Entry N#C/C(=N/Nc1cccc(C(F)(F)F)c1)C(=O)c1csc(-c2cccnc2)n1
Reply text: label 1

###

- Protocol text: chemical genetic growth profiling, strain panel (AID 1159580);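 also: tested at 20 µM; growth read once vehicle control cultures reached saturation at 30 °C; 1 = growth at the plate median or of vehicle wells; lower values mean less growth of the strain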
- Condition set: S. cerevisiae deletion strains, growth OD, locus YBL105C, strain PKC1, hits give low values
About 2,000 (36%) of roughly 5,500 compounds were called active. Inconclusive results (about 18%) are left out. Some of the results follow.
Please provide measured normalized growth for the entries that follow.
Answers are plain numbers.

Below, 2 compounds whose answers are already recorded.
- Compound: "CC(C)(C)C(=O)c1sc2sc(C(=O)C(C)(C)C)c(N)c2c1N"
  normalized growth: 0.992
- Compound: "O=c1c(-c2ccccc2)c(O)c2cccc3c4c(n1c23)CCCC4"
  normalized growth: 0.939

Would you mind listing normalized growth for each of the following compounds?
1. FC(F)(F)c1cc(-c2ccc(Cl)cc2)n[nH]1
2. OC(CSc1ccccc1)CN1CCN(c2nc(-c3ccccc3)ns2)CC1 (centres undefined)
3. Cc1ccc(OCc2n[nH]c(=S)n2Cc2ccccc2)c2c1CCC2
4. COc1cc(N2C(=O)C=CC2=O)cc(OC)c1OC
5. CN1c2ccccc2C(C)(C)C12C=Cc1cc(O)ccc1O2 (centres undefined)
6. CC(=O)c1ccccc1C(=O)c1ccc(C(C)(C)C)cc1

Reply text:
0.923
0.977
0.988
0.958
0.981
0.961

###

I'd be grateful if you could share measured normalized growth for these entries.
- Protocol text: chemical genetic growth profiling, strain panel (AID 1159580);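 also: tested at 20 µM; growth read once vehicle control cultures reached saturation at 30 °C; 1 = growth at the plate median or of vehicle wells; lower values mean less growth of the strain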
- Condition set: S. cerevisiae deletion strains, growth OD, locus YDR001C, strain nth1, hits give low values
The campaign covered roughly 5,500 compounds. About 2,000 (36%) were called active. Another 18% or so got no clear call; they are omitted. The list shows a part of the results.
One number for each entry.

- Compound: "C#C[C@]1(O)CCC2C3CCC4=Cc5oncc5C[C@]4(C)C3CC[C@@]21C (stereo partly drawn)"
  normalized growth: 0.961

Go through the items and report each one's normalized growth.
1. NC[C@H]1O[C@H](O[C@H]2C(O[C@@H]3O[C@H](CO)[C@@H](O)[C@H]3O)[C@@H](O)[C@H](N)C[C@@H]2N)[C@H](N)[C@@H](O)[C@@H]1O (stereo partly drawn)
2. CC(=O)OCC(=O)[C@@]1(O)CCC2C3CCC4=CC(=O)CC[C@]4(C)C3[C@@H](O)C[C@@]21C (stereo partly drawn)

Reply text:
0.989
1.01

Would you mind listing normalized growth for each of the following compounds?
1. COc1ccc2c(c1)[C@]13CCCC[C@H]1[C@H](C2)N(C)CC3
2. CO[C@H]1C[C@H](O[C@H]2[C@H](C)[C@@H](OC3O[C@H](C)C[C@H](N(C)C)[C@H]3OC(C)=O)[C@@H](C)C[C@]3(CO3)C(=O)[C@H](C)[C@@H](OC(C)=O)[C@@H](C)[C@@H](C)OC(=O)[C@@H]2C)O[C@@H](C)[C@@H]1OC(C)=O (stereo partly drawn)

Reply text:
1. 0.951
2. 0.992
